Test: chemical genetic growth profiling, strain panel (AID 1159580);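 further: tested at 20 µM; growth read once vehicle control cultures reached saturation at 30 °C; lower values mean less growth of the strain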
Assay Conditions: S. cerevisiae deletion strains, growth OD, locus YLR357W, strain rsc2
Screen size: about 5,500 compounds; about 2,000 (36%) were called active. Not shown: some 18% with an inconclusive outcome. No stated cut-off is given here; in the data, active means normalized growth mostly below about 0.91 (no sharp cut-off); inconclusive means no clear call, values can overlap the other calls; inactive means mostly above about 0.92. This is one part of the list.
Choose the fitting class; nothing outside T for active, F for inactive is accepted.

# outcome recorded in this test, key = CC(=O)O[C@@H]1CC2C(C)(C)CCC(=O)[C@]2(C)C2CC[C@@]3(C)[C@H](c4ccoc4)OC(=O)C4OC43[C@@]21C (stereo not given in full) F

// same read-out, input: COc1ccc(-c2cc(=O)c3c(O)c(OC)c(OC)c(OC)c3o2)cc1 F

Another: CC(=O)Nc1ccc(OC(=O)c2ccccc2O)cc1 F

And COC(=O)C1=C(C)NC(C)=C(C(=O)OCC(C)C)C1c1ccccc1[N+](=O)[O-] (stereo not given) ? T

Then what about the compound COCCOC(=O)C1=C(C)NC(C)=C(C(=O)OC(C)C)C1c1cccc([N+](=O)[O-])c1 (stereo not given) ? F

***
Identify the outcome logged in this assay for the compound shown: Cn1nnnc1SCC1=C(C(=O)O)N2C(=O)C(NC(=O)C(O)c3ccccc3)C2SC1 (stereo not given) F
